Every entry's value here was drawn from paper PMC11435205.

molecular target: CYP1A1 (Homo sapiens, UniProt P04798); experiment: in vitro; conditions: pH 7.4, CYP1A1 enzyme activity (%), MNF 2.5 µM, replicate V, positive control
Sequence (P04798 whole entry): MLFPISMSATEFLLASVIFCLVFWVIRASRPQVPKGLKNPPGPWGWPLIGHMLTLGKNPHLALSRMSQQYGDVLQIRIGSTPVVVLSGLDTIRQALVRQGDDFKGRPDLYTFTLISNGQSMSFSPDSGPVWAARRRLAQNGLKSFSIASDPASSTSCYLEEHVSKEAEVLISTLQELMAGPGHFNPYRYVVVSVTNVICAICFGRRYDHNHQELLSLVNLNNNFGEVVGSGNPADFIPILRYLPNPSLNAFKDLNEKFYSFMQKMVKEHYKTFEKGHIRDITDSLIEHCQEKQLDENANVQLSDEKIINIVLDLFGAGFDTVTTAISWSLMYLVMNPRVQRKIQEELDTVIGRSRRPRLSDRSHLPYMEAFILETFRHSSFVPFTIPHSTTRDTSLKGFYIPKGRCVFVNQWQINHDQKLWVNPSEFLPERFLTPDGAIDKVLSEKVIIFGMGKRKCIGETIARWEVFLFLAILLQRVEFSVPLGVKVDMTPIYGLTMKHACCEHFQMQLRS
VALUE KIND: activity (%)
Report the value in % with no unit label.

So, COc1cc(-c2cc(=O)c3ccccc3o2)ccc1[N+](=O)[O-] ? Its activity was 1.31
